- SUBJECT OF TEST: UniProt P12497
- EXPERIMENTAL DETAILS: HIV-1 integrase 3′-processing assay (32P-labeled 21-mer, gel)
- Format: biochemical
- STATED CONDITIONS: unit inferred; read-out: IN inhibition activity 3′-processing
pIC50: −log10 of the molar value.
READOUT: pIC50

Solved cases (3 shown):
COMPOUND	OBS VALUE
CC(C)(C)c1ccc(OCC(=O)N/N=C/c2ccc(-c3cccc(C(=O)O)c3)o2)cc1 [AV15A35]	< 4.00
COc1ccc(-c2nnc(SCC(=O)N/N=C/c3ccccc3C(=O)O)n2-c2ccccc2)cc1OC [GLD38]	< 4.00
O=C(O)c1cccc(-c2ccc(/C=N/Nc3nnn[nH]3)o2)c1 [AV15A1]	< 4.00

Could you now consider this next compound?
Summary for this compound, Cc1cc(C)nc(SCc2nnc(SCC(=O)NNC(=O)c3ccccc3O)n2C)n1 [AS9A5] : pIC50 is > 4.00

====

- SUBJECT OF TEST: HIV-1 integrase (wild-type IN) (Human immunodeficiency virus type 1 group M subtype B)
- EXPERIMENTAL DETAILS: HIV-1 integrase 3′-processing assay (32P-labeled 21-mer, gel)
- Type: biochemical
- STATED CONDITIONS: Table 53, structurally diverse compounds; read-out: IN inhibition activity 3′-processing
READOUT: IC50

MOLECULE	OBS VALUE
O=C(O)C1CCCCC1C(=O)Nc1ccc(Oc2cccc3ccccc23)cc1 (stereo not drawn) [GLD32]	> 100 µM

Summary for this molecule, O=C(O)C(O)C(O)c1nc2cc3ccccc3cc2[nH]1 (stereo not drawn) [GLD20] : IC50 is > 100 µM

Summary for this molecule, CCOc1cc(CNc2nn[nH]n2)cc(Cl)c1OCc1ccc(Cl)cc1 [GLD19] : IC50 is > 100 µM
